Where these numbers come from: ChEMBL document CHEMBL5724796

# SYSTEM TESTED: Peregrin (Homo sapiens)
# RUN CONDITIONS: Compound concentration 20.0 uM
A collection of molecules and their measured ΔTm
Please state the figure in °C; there is no need to write the unit.

Example cases with answers are listed next.
1. COc1cc([C@@H]2Oc3c(O)cc([C@H]4Oc5cc(O)cc(O)c5C(=O)[C@@H]4O)cc3[C@H]2CO)ccc1O; 2.27
2. CN1CC[C@@H](Oc2ccc(F)c(-c3nc4c(o3)C(=O)c3ccccc3C4=O)c2Cl)C1; 0.26
3. CNC(=O)c1cc(Nc2ccnc(Nc3ccc(CCNC(=O)OC(C)(C)C)cc3)n2)n[nH]1; -1.87
4. CNCc1ccc(-c2[nH]c3cc(F)cc4c3c2CCNC4=O)cc1; 3.14

So the reported ΔTm for "O=C(C[C@@H](C(F)F)n1ccc(F)n1)N1CCC(O)(Cn2cnc3c(cnn3-c3ccc(F)cc3)c2=O)CC1" , on Peregrin (Homo sapiens), turned out to be 0.9

So the reported ΔTm for "Nc1nc(C(F)(F)F)nc2c1nnn2C[C@H]1CN(Cc2nccs2)CCO1" , on Peregrin (Homo sapiens), turned out to be 1.22

So the reported ΔTm for "CC(C)c1ccc(C(=O)N=C(N)N)cc1S(C)(=O)=O" , on Peregrin (Homo sapiens), turned out to be -0.14

So the reported ΔTm for "COc1ccc(/C=C/C(=O)NO)c(-c2ccc(-c3ccccc3)cc2)c1" , on Peregrin (Homo sapiens), turned out to be -5.43

So the reported ΔTm for "CC(C)(C)NS(=O)(=O)c1ccc(NC(=O)[C@H](Cc2ccccc2)NC(=O)c2ccc(F)cc2)cc1" , on Peregrin (Homo sapiens), turned out to be 0.73

So the reported ΔTm for "Cc1cc(C(=O)CN2CCCCC2)c(C)n1-c1ccc(Cl)cc1" , on Peregrin (Homo sapiens), turned out to be -1.17
